Just for reference, paper PMC5513037 is where these values come from.

Measurement target: NPR2 (Homo sapiens)
Construct: endogenous in cells
Sequence (P20594 23-1047): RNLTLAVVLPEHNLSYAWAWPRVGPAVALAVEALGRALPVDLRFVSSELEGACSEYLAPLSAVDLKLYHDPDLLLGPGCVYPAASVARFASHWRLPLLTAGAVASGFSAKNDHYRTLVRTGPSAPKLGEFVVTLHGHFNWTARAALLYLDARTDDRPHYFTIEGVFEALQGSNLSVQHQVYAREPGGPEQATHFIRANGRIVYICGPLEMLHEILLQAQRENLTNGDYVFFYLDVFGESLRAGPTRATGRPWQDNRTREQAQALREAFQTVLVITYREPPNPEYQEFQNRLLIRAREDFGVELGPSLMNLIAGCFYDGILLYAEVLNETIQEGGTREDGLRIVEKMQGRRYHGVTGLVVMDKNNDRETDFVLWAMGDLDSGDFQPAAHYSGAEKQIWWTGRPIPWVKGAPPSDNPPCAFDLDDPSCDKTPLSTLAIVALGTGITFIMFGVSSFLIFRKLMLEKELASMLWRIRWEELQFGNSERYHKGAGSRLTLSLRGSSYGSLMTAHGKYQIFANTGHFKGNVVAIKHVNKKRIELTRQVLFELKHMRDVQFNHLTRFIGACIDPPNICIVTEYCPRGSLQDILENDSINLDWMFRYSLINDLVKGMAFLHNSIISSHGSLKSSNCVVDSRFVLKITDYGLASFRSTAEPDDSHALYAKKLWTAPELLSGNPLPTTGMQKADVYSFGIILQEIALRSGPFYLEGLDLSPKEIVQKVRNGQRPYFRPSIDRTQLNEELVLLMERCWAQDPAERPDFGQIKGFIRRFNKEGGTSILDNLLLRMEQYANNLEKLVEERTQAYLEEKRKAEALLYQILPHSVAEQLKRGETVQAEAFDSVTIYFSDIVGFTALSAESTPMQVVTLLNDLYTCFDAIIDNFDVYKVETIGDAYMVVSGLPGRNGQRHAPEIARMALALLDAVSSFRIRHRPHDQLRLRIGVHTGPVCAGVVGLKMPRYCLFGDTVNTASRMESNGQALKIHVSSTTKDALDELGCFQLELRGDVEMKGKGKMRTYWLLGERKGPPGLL
Assay comment: KAM-matrix competition in K562 lysate
Test conditions: KAM 0.001-10 uM, read-out: RB50 (the source's name)
Protocol: Supplement 12953_2017_125_MOESM1_ESM.zip/MS_Supp Info.xlsx, sheet "KAM" | column: 10 uM KAM; 1 uM KAM; 0.1 uM KAM; 0.01 uM KAM; 0.001 uM KAM; RB50
pIC50: −log10 of the molar value.
Readout kind: pIC50

>>> print(df.to_string())
                                        mol  readout_kind  observed_measurement
0  N#CCc1ccc(Nc2nc(NCCCN)cc(Nc3cc(C4CC4)[nH]n3)n2)cc1         pIC50                < 5.00

---

Measurement target: TGFBR2 (Homo sapiens, UniProt P37173)
Construct: endogenous in cells
Sequence (P37173 23-567): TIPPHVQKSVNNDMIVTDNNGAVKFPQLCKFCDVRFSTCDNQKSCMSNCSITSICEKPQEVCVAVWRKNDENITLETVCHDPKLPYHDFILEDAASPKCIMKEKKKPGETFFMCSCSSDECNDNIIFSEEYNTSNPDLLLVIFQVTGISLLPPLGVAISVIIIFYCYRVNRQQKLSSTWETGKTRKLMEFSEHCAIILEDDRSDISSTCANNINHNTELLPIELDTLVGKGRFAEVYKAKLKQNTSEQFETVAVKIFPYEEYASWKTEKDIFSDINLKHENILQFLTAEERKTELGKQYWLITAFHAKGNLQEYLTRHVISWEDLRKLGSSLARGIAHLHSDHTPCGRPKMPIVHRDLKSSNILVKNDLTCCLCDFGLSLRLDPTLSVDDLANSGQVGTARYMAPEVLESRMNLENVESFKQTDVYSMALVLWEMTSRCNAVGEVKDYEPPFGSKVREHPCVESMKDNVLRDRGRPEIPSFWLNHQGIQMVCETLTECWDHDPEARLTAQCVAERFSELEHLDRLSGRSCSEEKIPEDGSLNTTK
Assay comment: KAM-matrix competition in K562 lysate
Test conditions: read-out: RB50 (the source's name)
Readout kind: IC50 (nM)

>>> df
                                        mol                     measurement_target  observed_measurement
0  N#CCc1ccc(Nc2nc(NCCCN)cc(Nc3cc(C4CC4)[nH]n3)n2)cc1  TGFBR2 (Homo sapiens, UniProt P37173)                   117

---

Measurement target: MAP4K2 (Homo sapiens, UniProt Q12851)
Construct: endogenous in cells
Assay comment: KAM-matrix competition in K562 lysate
Test conditions: read-out: RB50 (the source's name)
pIC50: −log10 of the molar value.
Readout kind: pIC50

>>> df
                                        mol                     measurement_target  observed_measurement
0  N#CCc1ccc(Nc2nc(NCCCN)cc(Nc3cc(C4CC4)[nH]n3)n2)cc1  MAP4K2 (Homo sapiens, UniProt Q12851)                  5.65

---

Measurement target: MAP3K6 (Homo sapiens, UniProt O95382)
Construct: endogenous in cells
Sequence (O95382 whole entry): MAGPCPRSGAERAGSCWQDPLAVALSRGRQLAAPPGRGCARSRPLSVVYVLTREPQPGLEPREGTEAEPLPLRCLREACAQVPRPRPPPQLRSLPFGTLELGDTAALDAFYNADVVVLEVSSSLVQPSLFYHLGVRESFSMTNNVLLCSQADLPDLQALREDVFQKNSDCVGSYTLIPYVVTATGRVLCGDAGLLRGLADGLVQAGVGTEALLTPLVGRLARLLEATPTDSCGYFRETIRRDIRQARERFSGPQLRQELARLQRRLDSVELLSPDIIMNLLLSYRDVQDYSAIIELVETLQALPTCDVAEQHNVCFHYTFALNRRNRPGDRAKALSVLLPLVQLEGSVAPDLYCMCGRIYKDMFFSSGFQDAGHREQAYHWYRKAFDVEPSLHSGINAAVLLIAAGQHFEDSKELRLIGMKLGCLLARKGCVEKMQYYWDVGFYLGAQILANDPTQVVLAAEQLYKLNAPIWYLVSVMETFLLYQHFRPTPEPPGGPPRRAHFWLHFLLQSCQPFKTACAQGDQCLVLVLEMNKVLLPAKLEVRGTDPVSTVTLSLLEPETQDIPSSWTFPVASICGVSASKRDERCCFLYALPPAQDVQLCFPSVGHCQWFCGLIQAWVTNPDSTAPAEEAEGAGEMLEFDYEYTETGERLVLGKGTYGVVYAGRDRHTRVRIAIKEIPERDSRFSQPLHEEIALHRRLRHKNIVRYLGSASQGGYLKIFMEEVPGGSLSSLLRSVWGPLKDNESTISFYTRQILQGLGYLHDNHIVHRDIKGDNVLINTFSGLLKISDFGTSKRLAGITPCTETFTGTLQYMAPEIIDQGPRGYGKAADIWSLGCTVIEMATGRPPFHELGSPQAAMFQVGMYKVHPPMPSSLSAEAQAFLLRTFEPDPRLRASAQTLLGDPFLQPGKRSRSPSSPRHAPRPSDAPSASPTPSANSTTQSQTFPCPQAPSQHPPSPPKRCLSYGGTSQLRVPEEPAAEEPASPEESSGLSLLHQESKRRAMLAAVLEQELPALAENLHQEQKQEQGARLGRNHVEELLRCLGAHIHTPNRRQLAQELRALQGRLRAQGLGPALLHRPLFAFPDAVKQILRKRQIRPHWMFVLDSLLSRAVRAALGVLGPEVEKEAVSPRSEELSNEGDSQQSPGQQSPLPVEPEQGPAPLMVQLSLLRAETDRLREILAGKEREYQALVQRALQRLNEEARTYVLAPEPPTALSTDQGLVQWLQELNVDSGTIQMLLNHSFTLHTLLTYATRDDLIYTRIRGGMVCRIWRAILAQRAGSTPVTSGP
Assay comment: KAM-matrix competition in K562 lysate
Test conditions: read-out: RB50 (the source's name)
Procedure: Supplement 12953_2017_125_MOESM1_ESM.zip/MS_Supp Info.xlsx, sheet "KAM" | column: 10 uM KAM; 1 uM KAM; 0.1 uM KAM; 0.01 uM KAM; 0.001 uM KAM; RB50
pIC50: −log10 of the molar value.
Readout kind: pIC50

>>> print(df.to_string())
                                        mol  observed_measurement
0  N#CCc1ccc(Nc2nc(NCCCN)cc(Nc3cc(C4CC4)[nH]n3)n2)cc1                  5.27

---

Measurement target: PKN2 (Homo sapiens)
Construct: endogenous in cells
Sequence (Q16513 whole entry): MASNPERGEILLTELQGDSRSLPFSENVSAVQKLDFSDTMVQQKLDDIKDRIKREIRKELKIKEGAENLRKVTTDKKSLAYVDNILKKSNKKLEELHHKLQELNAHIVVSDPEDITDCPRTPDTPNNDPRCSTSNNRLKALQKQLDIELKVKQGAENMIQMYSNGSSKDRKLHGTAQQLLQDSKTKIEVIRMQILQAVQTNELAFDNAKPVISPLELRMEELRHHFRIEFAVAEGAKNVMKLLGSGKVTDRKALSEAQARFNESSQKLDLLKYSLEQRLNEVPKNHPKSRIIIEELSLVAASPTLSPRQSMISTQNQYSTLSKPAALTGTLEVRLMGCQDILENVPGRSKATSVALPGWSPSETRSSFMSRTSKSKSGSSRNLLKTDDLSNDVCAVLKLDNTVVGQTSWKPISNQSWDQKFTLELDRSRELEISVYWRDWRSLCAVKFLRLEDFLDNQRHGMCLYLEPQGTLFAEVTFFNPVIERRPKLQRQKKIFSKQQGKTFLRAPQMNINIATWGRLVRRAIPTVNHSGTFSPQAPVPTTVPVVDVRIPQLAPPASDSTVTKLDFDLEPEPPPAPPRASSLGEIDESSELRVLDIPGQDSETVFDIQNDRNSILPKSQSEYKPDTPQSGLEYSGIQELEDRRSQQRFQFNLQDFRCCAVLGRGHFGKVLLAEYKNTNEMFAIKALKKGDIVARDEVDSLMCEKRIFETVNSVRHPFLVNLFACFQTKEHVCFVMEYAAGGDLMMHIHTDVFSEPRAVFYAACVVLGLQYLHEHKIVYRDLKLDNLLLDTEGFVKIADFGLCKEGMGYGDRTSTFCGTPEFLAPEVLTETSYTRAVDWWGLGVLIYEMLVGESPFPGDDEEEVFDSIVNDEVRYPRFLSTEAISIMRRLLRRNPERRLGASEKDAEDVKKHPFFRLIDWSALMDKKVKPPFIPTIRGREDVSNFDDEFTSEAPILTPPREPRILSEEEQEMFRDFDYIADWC
Assay comment: KAM-matrix competition in K562 lysate
Test conditions: KAM 0.001-10 uM, read-out: RB50 (the source's name)
pIC50: −log10 of the molar value.
Readout kind: pIC50

>>> print(df.to_string())
                                   compound  readout_kind  observed_measurement
0  N#CCc1ccc(Nc2nc(NCCCN)cc(Nc3cc(C4CC4)[nH]n3)n2)cc1 [KAM]         pIC50                < 5.00

---

Measurement target: WEE1 (Homo sapiens, UniProt P30291)
Construct: endogenous in cells
Sequence (P30291 whole entry): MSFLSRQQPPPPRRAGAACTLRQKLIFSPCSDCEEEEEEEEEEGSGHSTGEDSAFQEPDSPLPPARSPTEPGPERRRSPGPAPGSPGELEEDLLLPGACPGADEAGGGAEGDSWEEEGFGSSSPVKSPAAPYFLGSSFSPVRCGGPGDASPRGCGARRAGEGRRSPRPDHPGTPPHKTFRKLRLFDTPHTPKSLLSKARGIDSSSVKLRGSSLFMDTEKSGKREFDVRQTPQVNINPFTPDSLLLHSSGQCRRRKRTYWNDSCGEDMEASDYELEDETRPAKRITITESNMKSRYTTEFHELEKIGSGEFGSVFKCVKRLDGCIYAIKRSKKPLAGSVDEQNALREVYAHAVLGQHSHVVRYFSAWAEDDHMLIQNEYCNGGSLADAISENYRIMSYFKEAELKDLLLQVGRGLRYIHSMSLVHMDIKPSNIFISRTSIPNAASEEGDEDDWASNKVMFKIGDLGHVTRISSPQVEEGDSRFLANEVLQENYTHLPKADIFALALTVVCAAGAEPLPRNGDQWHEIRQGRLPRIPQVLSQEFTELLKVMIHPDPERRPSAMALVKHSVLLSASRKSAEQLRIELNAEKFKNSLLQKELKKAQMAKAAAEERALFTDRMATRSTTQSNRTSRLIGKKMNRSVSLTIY
Assay comment: KAM-matrix competition in K562 lysate
Test conditions: read-out: RB50 (the source's name)
Method: Supplement 12953_2017_125_MOESM1_ESM.zip/MS_Supp Info.xlsx, sheet "KAM" | column: 10 uM KAM; 1 uM KAM; 0.1 uM KAM; 0.01 uM KAM; 0.001 uM KAM; RB50
Readout kind: IC50 (nM)

>>> df
                                   compound  observed_measurement
0  N#CCc1ccc(Nc2nc(NCCCN)cc(Nc3cc(C4CC4)[nH]n3)n2)cc1 [KAM]                  1320

---

Measurement target: MAP2K7 (Homo sapiens, UniProt O14733)
Construct: endogenous in cells
Sequence (O14733 whole entry): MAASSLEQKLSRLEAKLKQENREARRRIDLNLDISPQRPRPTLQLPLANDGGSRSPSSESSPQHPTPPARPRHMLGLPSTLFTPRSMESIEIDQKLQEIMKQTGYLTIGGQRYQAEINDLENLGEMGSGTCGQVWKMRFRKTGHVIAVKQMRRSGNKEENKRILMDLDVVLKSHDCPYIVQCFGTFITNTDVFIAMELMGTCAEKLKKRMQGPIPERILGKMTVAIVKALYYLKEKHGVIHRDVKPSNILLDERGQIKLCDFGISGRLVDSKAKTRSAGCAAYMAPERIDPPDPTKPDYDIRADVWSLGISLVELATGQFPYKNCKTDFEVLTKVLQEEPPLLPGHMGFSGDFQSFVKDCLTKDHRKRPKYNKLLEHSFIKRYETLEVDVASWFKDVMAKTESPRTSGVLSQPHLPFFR
Assay comment: KAM-matrix competition in K562 lysate
Test conditions: KAM 0.001-10 uM, read-out: RB50 (the source's name)
Readout kind: IC50

                                        mol  readout_kind  observed_measurement
0  N#CCc1ccc(Nc2nc(NCCCN)cc(Nc3cc(C4CC4)[nH]n3)n2)cc1          IC50               > 10 µM

---

Measurement target: FGFR3 (Homo sapiens, UniProt P22607)
Construct: endogenous in cells
Assay comment: KAM-matrix competition in K562 lysate
Test conditions: read-out: RB50 (the source's name)
Description: Supplement 12953_2017_125_MOESM1_ESM.zip/MS_Supp Info.xlsx, sheet "KAM" | column: 10 uM KAM; 1 uM KAM; 0.1 uM KAM; 0.01 uM KAM; 0.001 uM KAM; RB50
pIC50: −log10 of the molar value.
Readout kind: pIC50

>>> df
                                   molecule  observed_measurement
0  N#CCc1ccc(Nc2nc(NCCCN)cc(Nc3cc(C4CC4)[nH]n3)n2)cc1 [KAM]                  5.93

---

Measurement target: HUNK (Homo sapiens, UniProt P57058)
Construct: endogenous in cells; host or cells: K562
Assay comment: KAM-matrix competition in K562 lysate
Assay type: binding
Test conditions: KAM 0.001-10 uM, read-out: RB50 (the source's name)
Readout kind: IC50

>>> df
                                        mol  observed_measurement
0  N#CCc1ccc(Nc2nc(NCCCN)cc(Nc3cc(C4CC4)[nH]n3)n2)cc1               > 10 µM

---

Measurement target: EPHA2 (Homo sapiens)
Construct: endogenous in cells
Sequence (P29317 24-976): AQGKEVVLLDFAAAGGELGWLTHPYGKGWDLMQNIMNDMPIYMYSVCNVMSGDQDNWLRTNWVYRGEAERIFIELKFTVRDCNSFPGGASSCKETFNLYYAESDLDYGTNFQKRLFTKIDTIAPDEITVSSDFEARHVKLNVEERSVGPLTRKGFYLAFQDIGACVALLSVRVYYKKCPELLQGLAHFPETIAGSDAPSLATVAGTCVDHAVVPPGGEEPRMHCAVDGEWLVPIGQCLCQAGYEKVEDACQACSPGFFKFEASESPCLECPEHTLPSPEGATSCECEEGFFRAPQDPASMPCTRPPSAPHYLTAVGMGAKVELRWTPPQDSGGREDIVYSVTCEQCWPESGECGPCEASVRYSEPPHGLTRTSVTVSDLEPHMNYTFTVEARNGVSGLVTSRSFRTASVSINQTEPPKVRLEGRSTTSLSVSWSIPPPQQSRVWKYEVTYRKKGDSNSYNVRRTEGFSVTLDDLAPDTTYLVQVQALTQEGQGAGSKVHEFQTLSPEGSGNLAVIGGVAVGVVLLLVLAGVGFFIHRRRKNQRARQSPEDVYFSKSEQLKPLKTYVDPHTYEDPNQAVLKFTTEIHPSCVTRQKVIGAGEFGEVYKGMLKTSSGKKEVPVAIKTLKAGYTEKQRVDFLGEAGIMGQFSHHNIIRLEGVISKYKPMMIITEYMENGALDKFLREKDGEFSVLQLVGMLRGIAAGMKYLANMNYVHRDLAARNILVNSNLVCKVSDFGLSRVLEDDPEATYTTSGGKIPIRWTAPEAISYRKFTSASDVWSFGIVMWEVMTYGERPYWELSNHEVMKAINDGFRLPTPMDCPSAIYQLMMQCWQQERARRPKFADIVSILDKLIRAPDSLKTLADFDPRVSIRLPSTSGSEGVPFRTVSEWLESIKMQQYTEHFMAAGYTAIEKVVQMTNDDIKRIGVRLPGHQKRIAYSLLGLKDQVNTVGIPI
Assay comment: KAM-matrix competition in K562 lysate
Test conditions: KAM 0.001-10 uM, read-out: RB50 (the source's name)
Description: Supplement 12953_2017_125_MOESM1_ESM.zip/MS_Supp Info.xlsx, sheet "KAM" | column: 10 uM KAM; 1 uM KAM; 0.1 uM KAM; 0.01 uM KAM; 0.001 uM KAM; RB50
pIC50: −log10 of the molar value.
Readout kind: pIC50

>>> df
                                        mol  observed_measurement
0  N#CCc1ccc(Nc2nc(NCCCN)cc(Nc3cc(C4CC4)[nH]n3)n2)cc1                < 5.00
